Source listed as paper PMC7419507.

experimental.protocol: Cytotoxicity assay (CellTiter-Glo, 72 h), MESO-1
Format: cell-based
reported.conditions: human, MESO-1 malignant pleural mesothelioma cells, conc 25 uM; raw replicate data; read-out: MESO1 viability (%)
assay.endpoint: viability at 72 h, 25 uM (%)
Number in %, nothing else.

// worked examples, viability at 72 h, 25 uM included
compound | unit.spec | viability at 72 h, 25 uM
CO[C@@H]1/C=C/C=C/[C@@H](C)C[C@@H](C)C(=O)C[C@H](O)/C(C)=C/[C@@H](C)C(=O)C[C@@H]([C@H](C)C[C@@H]2CC[C@@H](O)[C@H](OC)C2)OC(=O)[C@@H]2CCCCN2C(=O)C(=O)[C@]2(O)O[C@@H](CC[C@H]2C)C1 [Compound 9] | % | 63.9
CO[C@H]1C[C@@H]2CC[C@@H](C)[C@@](O)(O2)C(=O)C(=O)N2CCCC[C@H]2C(=O)O[C@H]([C@H](C)C[C@@H]2CC[C@@H](O)[C@H](OC)C2)CC(=O)[C@H](C)/C=C(\C)[C@@H](O)CC(=O)[C@H](C)C[C@H](C)/C=C/C=C(C)/C=C/1C [Compound 2, 27-demethoxy-19-methyl rapamycin] | % | 84
COC1CC2CCC(C)C(O)(O2)C(=O)C(=O)N2CCCCC2C(=O)OC(C(C)CC2CCC(O)C(OC)C2)CC(=O)C(C)C=C(C)C(O)CC(=O)C(C)C=C(C)C=CC=CC=C1C (centres unmarked) [Compound 14] | % | 74.6
COC1CC2CCC(C)C(O)(O2)C(=O)C(=O)N2CCCCC2C(=O)OC(C(C)CC2CCC(O)C(OC)C2)CC(O)CC(=O)C(C)C=C(C)C(O)CC(=O)C(C)CC(C)C=CC=CC=C1C (centres unmarked) [Compound 13] | % | 61.7
COC1CC2CCC(C)C(O)(O2)C(=O)C(=O)N2CCCCC2C(=O)OC(C(C)CC2CCC(O)C(OC)C2)CCC(C)C=C(C)C(O)C(OC)C(=O)C(C)CC(C)C=CC=CC=C1C (centres unmarked) [Compound 16, 32-desketorapamycin] | % | 53.2

Qu. # get_value(readout='viability at 72 h, 25 uM', item= CO[C@@H]1C[C@H](C[C@@H](C)[C@@H]2CC(=O)[C@H](C)/C=C(\C)[C@@H](O)[C@@H](OC)C(=O)[C@H](C)C[C@H](C)/C=C/C=C/C=C(\C)[C@H](O)C[C@@H]3CC[C@@H](C)[C@@](O)(O3)C(=O)C(=O)N3CCCC[C@H]3C(=O)O2)CC[C@H]1O [Compound 17, (16R)-16-O-demethyl rapamycin] )
Ans. 67.4

Qu. And for CO[C@H]1C[C@@H]2CC[C@@H](C)[C@@](O)(O2)C(=O)C(=O)N2CCCC[C@H]2C(=O)O[C@H]([C@H](C)C[C@@H]2CC[C@@H](O)[C@H](OC)C2)CC(=O)[C@H](C)/C=C(\C)[C@@H](O)[C@@H](OC)C(=O)[C@H](C)C[C@H](C)/C=C/C=C/C=C/1C [Compound 1, rapamycin, reference compound] ?
Ans. 63.9

Qu. And for CO[C@H]1C[C@@H]2CC[C@@H](C)[C@@](O)(O2)C(=O)C(=O)N2CCCC[C@H]2C(=O)O[C@H]([C@H](C)C[C@@H]2CC[C@@H](O)[C@H](OC)C2)CC(=O)[C@H](C)/C=C(\C)[C@@H](O)CC[C@H](C)/C=C/C=C/C=C/1C [Compound 7] ?
Ans. 64.4
